Test system: A2780 cells
Experiment: Cell proliferation assay (A2780)
Assay type: cell-based
Settings: Homo sapiens, 168 h, 7 days
pIC50: −log10 of the molar value.
observed-property: pIC50

compound	observed-property	reported-result
CC(C)(F)C(=O)N1CCCC(c2cccc(C(=O)N[C@@H](C(=O)N3CCN(CC4CCN(CC(=O)N5CCN(C(=O)c6cc(Cc7n[nH]c(=O)c8ccccc78)ccc6F)CC5)CC4)CC3)C3CCCCC3)c2)C1 (some centres unmarked)	pIC50	7.00 to 8.00
CCc1cccc(-c2cnc(C(=O)NC34CCC(CN5CCN(CC(=O)N6CCN(C(=O)c7cc(Cc8n[nH]c(=O)c9ccccc89)ccc7F)CC6)CC5)(CC3)OC4)c(NC(C)=O)c2)c1	pIC50	7.00 to 8.00
CCc1cccc(-c2cnc(C(=O)N3CCC(CC(=O)N4CCN(C(=O)c5cc(Cc6n[nH]c(=O)c7ccccc67)ccc5F)CC4)CC3)c(NC(=O)CNCc3cccc(C)c3)c2)c1	pIC50	7.00 to 8.00
CC(C)(C)C(=O)N1CCC[C@H](c2cccc(C(=O)N[C@@H](C(=O)N3CCC(OC4CCN(CC(=O)N5CCN(C(=O)c6cc(Cc7n[nH]c(=O)c8ccccc78)ccc6F)CC5)CC4)CC3)C3CCCCC3)c2F)C1	pIC50	7.00 to 8.00
O=C(N[C@@H](C(=O)N1CCN(CC2CCN(CC(=O)N3CCN(C(=O)c4cc(Cc5n[nH]c(=O)c6ccccc56)ccc4F)CC3)CC2)CC1)C1CCCCC1)c1cccc(C2CCCN(C(=O)C3CC3)C2)c1 (some centres unmarked)	pIC50	6.00 to 7.00

Values were extracted from patent US20250127907A1.
